- Test system: Aβ40 in conditioned medium of cells stably expressing Amyloid Precursor Protein (APP)
- assay explanation: In vitro BACE-1 cell-based assay (Aβ40 sandwich ELISA)
- run conditions: BACE1 cell-based assay; read-out: IC50 IP (μM) BACE1 cell
property label: IC50 (µM)

COC[C@@]12C[C@@H]1[C@@](CF)(c1cc(NC(=O)c3ccc(Cl)cn3)cc(F)c1F)N=C(N)S2 ... 0.0174

I = C[C@]1(c2cc(Nc3ncnc4cc(C#N)cnc34)cc(F)c2F)N=C(N)S[C@@]2(CO)C[C@H]21
II = Cc1cc(C#N)cnc1C(=O)Nc1cc(F)c(F)c([C@@]2(CF)N=C(N)S[C@H]3C[C@H]32)c1
Req: API: POST /compare with I and II ; response names the item with higher IC50. Answer format: the label of the selected item.
Resp: II
(II: 0.00899 µM, I: 0.00457 µM)
